Overview of reported pKd across a group of binders:
Molecular target: T1, Glycoprotein VI extracellular domain (Gln21-Lys267) (Homo sapiens, UniProt Q9HCN6 SEQ:1-247)
T1 chain: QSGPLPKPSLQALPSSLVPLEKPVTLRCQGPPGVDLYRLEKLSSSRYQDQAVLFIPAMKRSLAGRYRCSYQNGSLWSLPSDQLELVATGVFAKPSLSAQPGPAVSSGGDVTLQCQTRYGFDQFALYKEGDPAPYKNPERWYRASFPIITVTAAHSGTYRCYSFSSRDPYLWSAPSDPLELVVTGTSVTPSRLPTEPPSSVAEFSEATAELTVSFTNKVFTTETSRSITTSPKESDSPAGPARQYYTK
Assay: filter
Details: tags: C-terminal His6; R&D Systems 3627-GP; label: 5'-32P
// pKd is dimensionless: -log10 of concentration (M)

Solved entries (count: 2):
GGGAGGACGGCGCGCCUGGCAUAAGCCUCCC (ssRNA, RB490 with 2'-OMe G6,A7) [RB518] = 7.81
GGGAGGACGGCGCGCCUGGCAUAAGCCUCCC (ssRNA, RB490 with 2'-OMe A7) [RB492] = 7.81

pKd measured on GGGAGGACGGCGGUCUAAGCUGCCUGGCAUAAGCCUCCC (ssRNA, 2'-F C and U; 2'-OH A and G) [EF-31 T5 (RB442)] = 7.81
